Please provide measured GI50 for the entries that follow.
System: SF-539 CNS
Assay: NCI tumour cell line growth inhibition, 48 h

[Q] I have this molecule here, `Cn1ccnc1C(=O)/C=C/c1ccc(CC(=O)Nc2ccccc2)cc1` , and I need its recorded GI50.
[A] 2430 nM

[Q] I have this molecule here, `CN(C)C(=S)N=Nc1c(O)[nH]c2ccccc12` , and I need its recorded GI50.
[A] 499 nM

[Q] I have this molecule here, CC1OC2CC(=O)OC2C2=C1C(=O)c1c(O)c3c(c(O)c1C2=O)C1CC(O)C3(O)C(C)O1 (centres undefined) , and I need its recorded GI50.
[A] 458 nM

[Q] I have this molecule here, `Oc1ccc(CCCCCCc2ccc(O)cc2)cc1` , and I need its recorded GI50.
[A] 2460 nM

Source of measurements: PubChem BioAssay (NCI)
